- Test system: Target C
- Assay Remarks: RT-qPCR canonical junction panel assay, Target C
- Format: cell-based
- Condition Label: gene panel, read-out: Target C IC50 (decrease in CJ mRNA levels)
pIC50: −log10 of the molar value.
Hi there, I'd appreciate the recorded pIC50 for every entry that follows.

pIC50 value, target or system Target C, for Cc1cc(-c2nc3ncn(C4CCNCC4)c(=O)c3s2)cc2cn(C)nc12 [Compound 233] : 6.00 to 7.00

pIC50 value, target or system Target C, for Cc1cn2cc(-n3cnc4nc(N(C)C5CC(C)(C)NC(C)(C)C5)sc4c3=O)cc(F)c2n1 [Compound 227] : < 5.00

pIC50 value, target or system Target C, for Cc1cc(-c2cc3ncn(C4CCNCC4)c(=O)c3s2)cc2cn(C)nc12 [Compound 236] : 6.00 to 7.00

pIC50 value, target or system Target C, for Cc1cn2nc(-c3cc4ncn(C5CCNCC5)c(=O)c4s3)cc(C)c2n1 [Compound 238] : 5.00 to 6.00

pIC50 value, target or system Target C, for Cc1cn2cc(-c3cc(=O)n4nc(N5CCNC6(CC6)C5)sc4n3)cc(F)c2n1 [Compound 209] : 5.00 to 6.00

pIC50 value, target or system Target C, for Cc1cn2cc(-n3cnc4nc(N5CCN(C)CC5)sc4c3=O)cc(C(F)(F)F)c2n1 [Compound 230] : < 5.00

pIC50 value, target or system Target C, for Cc1cn2cc(-c3cn4c(=O)cc(N5CCNC6(CC6)C5)nc4s3)cc(F)c2n1 [Compound 208] : 5.00 to 6.00

pIC50 value, target or system Target C, for Cc1cc(-c2cc(=O)n3cc(N4CCN(C)CC4)sc3n2)cc2cn(C)nc12 [Compound 109] : < 5.00

pIC50 value, target or system Target C, for Cc1cn2nc(-c3cc(=O)n4cc(N5CCNC6(CC6)C5)sc4n3)cc(C)c2n1 [Compound 211] : 5.00 to 6.00

pIC50 value, target or system Target C, for Cc1cn2nc(-c3cc4ncn(C5CCN(C)CC5)c(=O)c4s3)cc(C)c2n1 [Compound 239] : < 5.00

pIC50 value, target or system Target C, for Cc1cn2cc(-c3cc(=O)n4cc(N5CCNC6(CC6)C5)sc4n3)cc(F)c2n1 [Compound 207] : < 5.00

pIC50 value, target or system Target C, for Cc1cn2cc(-c3nc4ncn(C5CCNCC5)c(=O)c4s3)cc(F)c2n1 [Compound 232] : 6.00 to 7.00

pIC50 value, target or system Target C, for Cc1cn2cc(-c3cc(=O)n4nc(N5CCN(C)CC5)sc4n3)cc(F)c2n1 [Compound 159] : 5.00 to 6.00

pIC50 value, target or system Target C, for Cc1cc(-c2cc(=O)n3nc(N4CCN(C)CC4)sc3n2)cc2cn(C)nc12 [Compound 157] : < 5.00

pIC50 value, target or system Target C, for Cc1cc(-c2nn3c(=O)cc(N4CCNCC4)nc3s2)cc2cn(C)nc12 [Compound 206] : 5.00 to 6.00

pIC50 value, target or system Target C, for Cc1cn2cc(-c3nn4c(=O)cc(N5CCN(C)CC5)nc4s3)cc(F)c2n1 [Compound 217] : 5.00 to 6.00

pIC50 value, target or system Target C, for Cc1cn2nc(-c3cn4c(=O)cc(N5CCNC6(CC6)C5)nc4s3)cc(C)c2n1 [Compound 212] : 5.00 to 6.00
